# CC50 per record follows
# PROTOCOL DETAILS: Cytotoxicity, MTT method, MT-4 cells
# TEST SETTINGS: human

| COMPOUND | REPORTED PROPERTY | RESULT |
| --- | --- | --- |
| Cc1ccc(NC(=O)Nc2ccc(-n3nc4cc(Cl)c(Cl)cc4n3)cc2)cc1 [10f] | CC50 | > 100 µM |
| O=C(Nc1ccc(-n2nnc3cc(Cl)c(Cl)cc32)cc1)c1ccc(C(F)(F)F)cc1 | CC50 | > 100 µM |

Can you look up the measured CC50 of CCNC(=O)Nc1ccc(-n2nc3cc(Cl)c(Cl)cc3n2)cc1 [10a] for me?
> 100 µM

Can you look up the measured CC50 of `COc1ccc(C(=O)Nc2ccc(-n3nnc4cc(Cl)c(Cl)cc43)cc2)cc1` for me?
33 µM

Can you look up the measured CC50 of COc1ccc(NC(=O)Nc2ccc(-n3nc4cc(Cl)c(Cl)cc4n3)cc2)cc1 [10g] for me?
> 100 µM

Can you look up the measured CC50 of CCCCNC(=O)Nc1ccc(-n2nc3cc(Cl)c(Cl)cc3n2)cc1 [10c] for me?
> 100 µM

Can you look up the measured CC50 of O=C(Nc1ccc(-n2nc3cc(Cl)c(Cl)cc3n2)cc1)NC1CCCCC1 [10d] for me?
> 100 µM

Can you look up the measured CC50 of `CCCC(=O)Nc1ccc(-n2nc3cc(Cl)c(Cl)cc3n2)cc1` for me?
> 100 µM

Can you look up the measured CC50 of `Cc1ccc(C(=O)Nc2ccc(-n3nnc4cc(Cl)c(Cl)cc43)cc2)cc1` for me?
> 100 µM

Can you look up the measured CC50 of `Nc1ccc(-n2nc3cc(Cl)c(Cl)cc3n2)cc1` for me?
52 µM

###

# PROTOCOL DETAILS: Cytotoxicity, MTT method, Vero-76 cells
# TEST SETTINGS: African green monkey (Cercopithecus aethiops)
REPORTED PROPERTY: CC50
Report as: number unit

Can you look up the measured CC50 of CCCCNC(=O)Nc1ccc(-n2nc3cc(Cl)c(Cl)cc3n2)cc1 [10c] for me?
90 µM

###

# Tested on: RSV strain B1 cp-52
# PROTOCOL DETAILS: microbe, parasite or virus in culture
# Format: cell-based
# TEST SETTINGS: human respiratory syncytial virus, Vero 76, read-out: 50% inhibitory concentration RSV cp-52
# pIC50 per record follows
Expect pIC50 as a plain number equal to -log10 of the molar concentration.

Below, each entry is followed by its recorded pIC50 result.
| MOLECULE | pIC50 |
| --- | --- |
| CCCNC(=O)Nc1ccc(-n2nc3cc(Cl)c(Cl)cc3n2)cc1 [10b] | 5.15 |
| O=C(Nc1ccc(-n2nc3cc(Cl)c(Cl)cc3n2)cc1)NC1CCCCC1 [10d] | 5.15 |

Now take the following molecule into account.
Can you look up the measured pIC50 of `COc1cc(C(=O)Nc2ccc(-n3nc4cc(Cl)c(Cl)cc4n3)cc2)cc(OC)c1OC` for me?
5.00

###

# pEC50 per record follows
# Tested on: HIV-1IIIB
# PROTOCOL DETAILS: microbe, parasite or virus in culture
# Format: cell-based, Human Immunodeficiency Virus type-1 (HIV-1)
# TEST SETTINGS: Human immunodeficiency virus 1, MT4, read-out: EC50 HIV-1IIIB
pEC50: −log10 of the molar value.

Below, each entry is followed by its recorded pEC50 result.
| MOLECULE | REPORTED PROPERTY | RESULT |
| --- | --- | --- |
| Cc1ccc(C(=O)Nc2ccc(-n3nc4cc(Cl)c(Cl)cc4n3)cc2)cc1 | pEC50 | < 4.00 |
| O=C(Nc1ccc(-n2nnc3cc(Cl)c(Cl)cc32)cc1)c1ccc([N+](=O)[O-])cc1 | pEC50 | < 4.00 |

Now take the following molecule into account.
Can you look up the measured pEC50 of `CCC(=O)Nc1ccc(-n2nnc3cc(Cl)c(Cl)cc32)cc1` for me?
< 4.55

###

# CC50 at 5 days per record follows
# PROTOCOL DETAILS: Cytotoxicity, MTT method, Vero-76 cells
# TEST SETTINGS: African green monkey (Cercopithecus aethiops)

Below, each entry is followed by its recorded CC50 at 5 days result.
| COMPOUND | CC50 at 5 days |
| --- | --- |
| N#Cc1ccc(C(=O)Nc2ccc(-n3nc4cc(Cl)c(Cl)cc4n3)cc2)cc1 [8h] | > 100 µM |
| O=C(Nc1ccc(-n2nc3cc(Cl)c(Cl)cc3n2)cc1)c1ccccc1 [8a] | > 100 µM |
| CCCC(=O)N(C(=O)CCC)c1ccc(-n2nnc3cc(Cl)c(Cl)cc32)cc1 [5d] | 20 µM |
| CCCC(=O)Nc1ccc(-n2nc3cc(Cl)c(Cl)cc3n2)cc1 [6c] | > 100 µM |
| COc1cc(C(=O)Nc2ccc(-n3nc4cc(Cl)c(Cl)cc4n3)cc2)cc(OC)c1OC [8d] | 80 µM |
| Nc1ccc(-n2nnc3cc(Cl)c(Cl)cc32)cc1 [1a] | > 100 µM |
| CCC(=O)Nc1ccc(-n2nc3cc(Cl)c(Cl)cc3n2)cc1 [6b] | > 100 µM |
| CCC(=O)Nc1ccc(-n2nnc3cc(Cl)c(Cl)cc32)cc1 [5b] | 30 µM |
| O=c1cnn([C@@H]2O[C@H](CO)[C@@H](O)[C@H]2O)c(=O)[nH]1 [6-azauridine, reference compound] | ≥ 14 µM |
| COc1ccc(C(=O)Nc2ccc(-n3nc4cc(Cl)c(Cl)cc4n3)cc2)cc1 [8c] | > 100 µM |

Can you look up the measured CC50 at 5 days of O=C(Nc1ccccc1)Nc1ccc(-n2nc3cc(Cl)c(Cl)cc3n2)cc1 [10e] for me?
> 100 µM

Can you look up the measured CC50 at 5 days of Cc1ccc(NC(=O)Nc2ccc(-n3nc4cc(Cl)c(Cl)cc4n3)cc2)cc1 [10f] for me?
> 100 µM

Can you look up the measured CC50 at 5 days of O=C(Nc1ccc(-n2nc3cc(Cl)c(Cl)cc3n2)cc1)NC1CCCCC1 [10d] for me?
90 µM

Can you look up the measured CC50 at 5 days of COc1ccc(NC(=O)Nc2ccc(-n3nc4cc(Cl)c(Cl)cc4n3)cc2)cc1 [10g] for me?
> 100 µM

Can you look up the measured CC50 at 5 days of O=C(Nc1ccc(Cl)cc1)Nc1ccc(-n2nc3cc(Cl)c(Cl)cc3n2)cc1 [10h] for me?
> 100 µM

Can you look up the measured CC50 at 5 days of Cc1ccc(C(=O)Nc2ccc(-n3nc4cc(Cl)c(Cl)cc4n3)cc2)cc1 [8b] for me?
> 100 µM

Can you look up the measured CC50 at 5 days of CCNC(=O)Nc1ccc(-n2nc3cc(Cl)c(Cl)cc3n2)cc1 [10a] for me?
> 100 µM

Can you look up the measured CC50 at 5 days of CC(=O)Nc1ccc(-n2nc3cc(Cl)c(Cl)cc3n2)cc1 [6a] for me?
> 100 µM

Can you look up the measured CC50 at 5 days of CCCNC(=O)Nc1ccc(-n2nc3cc(Cl)c(Cl)cc3n2)cc1 [10b] for me?
30 µM

Can you look up the measured CC50 at 5 days of O=C(Nc1ccc(-n2nnc3cc(Cl)c(Cl)cc32)cc1)c1ccc(C(F)(F)F)cc1 [7g] for me?
9 µM

Can you look up the measured CC50 at 5 days of CCCCNC(=O)Nc1ccc(-n2nc3cc(Cl)c(Cl)cc3n2)cc1 [10c] for me?
> 100 µM

###

# pEC50 per record follows
# Test system: RSV
# PROTOCOL DETAILS: microbe, parasite or virus in culture
# Type: cell-based, Human Respiratory Syncytial Virus (RSV) strain A2
# TEST SETTINGS: human respiratory syncytial virus, Vero 76, read-out: EC50 RSV
pEC50: −log10 of the molar value.

Below, each entry is followed by its recorded pEC50 result.
| MOLECULE | pEC50 |
| --- | --- |
| O=C(Nc1ccc(-n2nc3cc(Cl)c(Cl)cc3n2)cc1)c1ccccc1 | < 4.00 |
| Cc1ccc(C(=O)Nc2ccc(-n3nnc4cc(Cl)c(Cl)cc43)cc2)cc1 | < 4.00 |
| CC(=O)Nc1ccc(-n2nc3cc(Cl)c(Cl)cc3n2)cc1 | < 4.00 |
| CCCC(=O)N(C(=O)CCC)c1ccc(-n2nnc3cc(Cl)c(Cl)cc32)cc1 | < 4.52 |
| O=C(Nc1ccc(Cl)cc1)Nc1ccc(-n2nc3cc(Cl)c(Cl)cc3n2)cc1 [10h] | < 4.00 |
| CCCCNC(=O)Nc1ccc(-n2nc3cc(Cl)c(Cl)cc3n2)cc1 [10c] | < 4.00 |
| CCNC(=O)Nc1ccc(-n2nc3cc(Cl)c(Cl)cc3n2)cc1 [10a] | < 4.00 |
| NC(=O)c1ncn([C@@H]2O[C@H](CO)[C@@H](O)[C@H]2O)n1 [ribavirin, reference compound] | 5.15 |
| CCCNC(=O)Nc1ccc(-n2nc3cc(Cl)c(Cl)cc3n2)cc1 [10b] | 5.52 |
| COc1ccc(NC(=O)Nc2ccc(-n3nc4cc(Cl)c(Cl)cc4n3)cc2)cc1 [10g] | < 4.00 |

Can you look up the measured pEC50 of O=C(NCc1ccccc1)Nc1ccc(-n2nc3cc(Cl)c(Cl)cc3n2)cc1 [10j] for me?
< 4.00

Can you look up the measured pEC50 of `Nc1ccc(-n2nc3cc(Cl)c(Cl)cc3n2)cc1` for me?
5.22

Can you look up the measured pEC50 of O=c1cnn([C@@H]2O[C@H](CO)[C@@H](O)[C@H]2O)c(=O)[nH]1 [6-azauridine, reference compound] for me?
5.85

Reference for the values: paper PMC6476926
